Molecular target: Free fatty acid receptor 4 (Homo sapiens) (UniProt Q5NUL3)
Sequence (whole entry): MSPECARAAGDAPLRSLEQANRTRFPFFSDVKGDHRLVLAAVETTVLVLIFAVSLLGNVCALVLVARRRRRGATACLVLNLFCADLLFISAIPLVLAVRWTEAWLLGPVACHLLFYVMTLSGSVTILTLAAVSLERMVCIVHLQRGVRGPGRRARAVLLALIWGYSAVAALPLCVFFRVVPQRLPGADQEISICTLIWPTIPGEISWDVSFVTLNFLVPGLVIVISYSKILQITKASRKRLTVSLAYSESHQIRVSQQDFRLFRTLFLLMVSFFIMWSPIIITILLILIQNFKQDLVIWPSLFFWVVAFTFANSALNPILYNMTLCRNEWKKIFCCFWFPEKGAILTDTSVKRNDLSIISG
Assay: Agonist activity at N-terminal FLAG tagged human FFAR4 transfected in African green monkey COS-7 cells assessed as accumulation of inositol phosphate at 10 uM incubated for 90 mins by TopCount NXT counter based analysis relative to control
Format: cell-based
Each record here notes measured Emax.
Just the number in %, nothing appended.

Here are 4 compounds together with their reported answers.
Cc1cc(OCc2nc(N)nc(NCCc3ccccc3OC(F)(F)F)n2)cc(N2CCCC2=O)c1    29
Cc1ccc(Nc2nc(N)nc(COc3cc(C#N)cc(N4CCCC4=O)c3)n2)cc1Cl    26
Cc1cc(OCc2nc(N)nc(NCCc3ccc(Cl)c(Cl)c3)n2)cc(N2CCCC2=O)c1    23
Cc1cc(OCc2nc(N)nc(NCCc3cccc(F)c3)n2)cc(N2CCCC2=O)c1    35

Shift focus to the following entry.
[Q] Output Emax of Cc1cc(OCc2nc(N)nc(NCCc3ccccc3Cl)n2)cc(N2CCCC2=O)c1
[A] 33

====

Biological target: Free fatty acid receptor 4 (Homo sapiens)
Sequence (Q5NUL3 whole entry): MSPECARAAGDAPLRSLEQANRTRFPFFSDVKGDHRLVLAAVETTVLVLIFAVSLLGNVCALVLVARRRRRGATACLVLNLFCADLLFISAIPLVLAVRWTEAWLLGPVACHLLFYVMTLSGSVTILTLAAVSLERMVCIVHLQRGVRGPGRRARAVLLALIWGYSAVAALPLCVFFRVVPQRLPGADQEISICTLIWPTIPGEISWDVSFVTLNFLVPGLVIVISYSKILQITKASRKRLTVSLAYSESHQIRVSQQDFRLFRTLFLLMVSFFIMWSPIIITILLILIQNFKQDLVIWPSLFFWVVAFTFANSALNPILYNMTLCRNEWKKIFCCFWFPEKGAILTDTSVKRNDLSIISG
Test: Agonist activity at N-terminal FLAG tagged human FFAR4 transfected in African green monkey COS-7 cells assessed as accumulation of inositol phosphate incubated for 90 mins by TopCount NXT counter based analysis
pEC50: −log10 of the molar value.
Classification field: Met = pEC50 at or over 7; Not met = pEC50 under 7.

COc1ccc(OCc2nc(N)nc(Nc3ccc(C)c(Cl)c3)n2)cc1N1CCCC1=O    Not met
Cc1cc(OCc2nc(N)nc(NCCc3ccccc3C(F)(F)F)n2)cc(N2CCCC2=O)c1    Met
Cc1cc(=O)oc2cc(OCc3nc(N)nc(Nc4ccc(Cl)c(Cl)c4)n3)ccc12    Not met
Cc1cc(OCc2nc(N)nc(NCCc3cccc(Cl)c3)n2)cc(N2CCCC2=O)c1    Met
Cc1cc(OCc2nc(N)nc(NCCc3cc(F)ccc3F)n2)cc(N2CCCC2=O)c1    Met
Cc1ccc(Nc2nc(N)nc(COc3ccc4c(C(F)F)cc(=O)oc4c3)n2)cc1    Not met

Next item in the queue.
[Q] Does the reported pEC50 for Cc1cc(OCc2nc(N)nc(NCCc3ccccc3OC(F)F)n2)cc(N2CCCC2=O)c1 fall at or above the 7 mark?
[A] Not met
